Where do these numbers come from? They come from patent US20140112915A1.

- experimental_target: T1, Recombinant human IL-18 (human, UniProt Q14116 37-193)
- T1 sequence: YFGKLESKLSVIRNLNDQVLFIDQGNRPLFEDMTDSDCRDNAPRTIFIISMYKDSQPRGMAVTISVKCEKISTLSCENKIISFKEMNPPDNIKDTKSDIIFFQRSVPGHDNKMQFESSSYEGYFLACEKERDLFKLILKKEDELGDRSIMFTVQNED
- method_summary: cell-based or functional assay
result_type: IC50, inhibition of IFN-γ release, KG-1 cells, Hu IL-18 (1 nM) (pM)
Record the value in pM, omitting the unit from your answer.

binder	unit_symbol	result_number
MOR9464_N30E (antibody, human IgG1, lambda, L234A L235A, V domains shown) VH: EVQLVQSGAEVKKPGSSVKVSCKASGGTFESYAISWVRQAPGQGLEWMGNIIPMTGQTYYAQKFQGRVTITADESTSTAYMELSSLRSEDTAVYYCARAAYHPLVFDNWGQGTLVTVSS VL: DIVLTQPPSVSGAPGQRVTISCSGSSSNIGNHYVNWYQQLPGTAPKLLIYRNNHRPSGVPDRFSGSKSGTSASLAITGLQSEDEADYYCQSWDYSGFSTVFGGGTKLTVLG	pM	490
MOR9464_N30Q (antibody, human IgG1, lambda, L234A L235A, V domains shown) VH: EVQLVQSGAEVKKPGSSVKVSCKASGGTFQSYAISWVRQAPGQGLEWMGNIIPMTGQTYYAQKFQGRVTITADESTSTAYMELSSLRSEDTAVYYCARAAYHPLVFDNWGQGTLVTVSS VL: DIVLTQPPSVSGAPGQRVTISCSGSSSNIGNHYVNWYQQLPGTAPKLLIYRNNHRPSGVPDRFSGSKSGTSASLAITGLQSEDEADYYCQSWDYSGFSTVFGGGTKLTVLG	pM	220

We next turn to a different binder, shown below.
QUERY: Param item = MOR9464_N30T (antibody, human IgG1, lambda, L234A L235A, V domains shown) VH: EVQLVQSGAEVKKPGSSVKVSCKASGGTFTSYAISWVRQAPGQGLEWMGNIIPMTGQTYYAQKFQGRVTITADESTSTAYMELSSLRSEDTAVYYCARAAYHPLVFDNWGQGTLVTVSS VL: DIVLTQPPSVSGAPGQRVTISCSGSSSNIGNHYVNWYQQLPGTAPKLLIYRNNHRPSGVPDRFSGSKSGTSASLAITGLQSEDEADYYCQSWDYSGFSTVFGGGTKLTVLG ; retrieve measured IC50, inhibition of IFN-γ release, KG-1 cells, Hu IL-18 (1 nM).
RESULT: 310
